Test system: colchicine site on tubulin (Porcine brain tubulin)
Assay: Colchicine displacement assay, fluorometric detection
Format: binding
Settings: 2 μM porcine brain tubulin, 2 μM colchicine, compound at 20 μM, 2 h; control = colchicine bound to tubulin
measurementType: Colchicine-tubulin binding Percent of control

Worked cases, Colchicine-tubulin binding Percent of control given:
compound	subjectOfTest	result
CCOc1ccc2[nH]cc(CCNc3nc(C)cc(Nc4ccc5c(C)n(C)nc5c4)n3)c2c1	colchicine site on tubulin (Porcine brain tubulin)	99% of control
CCOc1ccc2[nH]cc(CCNc3nccc(Nc4ccc5cn(C)nc5c4)n3)c2c1	colchicine site on tubulin (Porcine brain tubulin)	68% of control
COc1ccc2[nH]cc(CCNc3nccc(Nc4cccc5c4cnn5C)n3)c2c1	colchicine site on tubulin (Porcine brain tubulin)	64% of control

Asked: Give the reported Colchicine-tubulin binding Percent of control for this compound. "COc1ccc2[nH]cc(CCNc3nccc(Nc4ccc5cn(C)nc5c4)n3)c2c1"
Given back: 77% of control

Asked: Give the reported Colchicine-tubulin binding Percent of control for this compound. COc1ccc(/C=C\c2cc(OC)c(OC)c(OC)c2)cc1O [Combretastatin A4, combretastatin A4, reference compound]
Given back: 66% of control

Asked: Give the reported Colchicine-tubulin binding Percent of control for this compound. "CCOc1ccc2[nH]cc(CCNc3nccc(Nc4cccc5c4cnn5C)n3)c2c1"
Given back: 68% of control

Asked: Give the reported Colchicine-tubulin binding Percent of control for this compound. "COc1ccc2[nH]cc(CCNc3nccc(Nc4ccc5c(C)n(C)nc5c4)n3)c2c1"
Given back: 94% of control

====

EC50 for assorted molecules
System: A2780/Adr
Assay: FMCA cytotoxicity, multidrug-resistant ovarian cancer cell line A2780/Adr
Format: cell-based
Write down the numeric answer in nM and omit the unit.

Worked cases, EC50 given:
molecule	unitName	quantitativeReadout
COc1ccc2[nH]cc(CCNc3nccc(Nc4ccc5c(C)n(C)nc5c4)n3)c2c1	nM	370
CCOc1ccc2[nH]cc(CCNc3nc(C)cc(Nc4ccc5c(C)n(C)nc5c4)n3)c2c1	nM	390
COc1ccc2[nH]cc(CCNc3nccc(Nc4cccc5c4cnn5C)n3)c2c1	nM	13

Asked: Report EC50 from A2780/Adr testing of CC(=O)O[C@H]1C(=O)[C@@]2(C)[C@H]([C@H](OC(=O)c3ccccc3)[C@]3(O)C[C@H](OC(=O)[C@H](O)[C@@H](NC(=O)c4ccccc4)c4ccccc4)C(C)=C1C3(C)C)[C@]1(OC(C)=O)CO[C@@H]1C[C@@H]2O [Paclitaxel, paclitaxel, reference compound]
Given back: 810

Asked: Report EC50 from A2780/Adr testing of CC[C@]1(O)C[C@H]2CN(CCc3c([nH]c4ccccc34)[C@@](C(=O)OC)(c3cc4c(cc3OC)N(C=O)[C@H]3[C@@](O)(C(=O)OC)[C@H](OC(C)=O)[C@]5(CC)C=CCN6CC[C@]43[C@@H]65)C2)C1 [Vincristine, vincristine, reference compound]
Given back: 210

Asked: Report EC50 from A2780/Adr testing of "COc1ccc2[nH]cc(CCNc3nccc(Nc4ccc5cn(C)nc5c4)n3)c2c1"
Given back: 34

Asked: Report EC50 from A2780/Adr testing of "CCOc1ccc2[nH]cc(CCNc3nccc(Nc4cccc5c4cnn5C)n3)c2c1"
Given back: 3.6

Asked: Report EC50 from A2780/Adr testing of "CCOc1ccc2[nH]cc(CCNc3nccc(Nc4ccc5cn(C)nc5c4)n3)c2c1"
Given back: 16

Asked: Report EC50 from A2780/Adr testing of "CCOc1ccc2[nH]cc(CCNc3nccc(Nc4ccc5c(C)n(C)nc5c4)n3)c2c1"
Given back: 150
